test: NCI Yeast Anticancer Drug Screen. Data for the bub3 strain (AID 167); conditions: S. cerevisiae bub3 mutant strain, at 50.0 µM, active compounds read high
About 79,000 compounds went through this panel and 15% of them were active in at least one assay; those are over-represented in the sample as a whole.
Experimental readout: growth inhibition (%)
Your answer is read as %, so omit the unit and give the number.

State the recorded growth inhibition for this entry: CCn1c(O)c(C=Nc2ccccc2)s/c1=N/Nc1nc(-c2ccc(O)c(O)c2)cs1 79

Moving on to Cn1c(CN(Cc2nc3ccccc3n2C)Cc2nc3ccccc3n2C)nc2ccccc21 56.2

Moving on to COc1ccc(CCC2(C)OCCC(C)O2)cc1 (configuration not stated) -16.1

Moving on to COC(=O)C(=O)C(C(=O)C(=O)Nc1ccc(C)cc1C)c1nc2ccccc2[nH]c1=O (configuration not stated) 34

Moving on to Cc1ccc(C2SCC(=O)N2c2ccc(-n3c(-c4ccccc4)nc4ccccc4c3=O)cc2)cc1 (configuration not stated) 72.7

Moving on to Clc1ccc(SCCN2CCN(CCSc3ccc(Cl)cc3)CC2)cc1 92.1

Moving on to CC(C)(C)CC(C)(C)c1ccc(O)c(Cl)c1 78.4

Moving on to CO[C@H]1CC[C@@]2(C)C(=CC[C@H]3[C@@H]4C[C@H](OC(C)=O)C[C@@]4(C)CC[C@@H]32)C1 13.3

Moving on to Cc1c(C[n+]2cc3ccccc3cc2/C=N/O)ccc2ccccc12 97.2

Moving on to Cc1ccc(C2(O)CC(c3ccc([N+](=O)[O-])o3)=NN2C(=O)COc2ccc(Cl)cc2)cc1 (configuration not stated) 37.6

Moving on to COc1ccc(-c2cc(=O)c3c(C)ccnc3[nH]2)cc1 81.8

Moving on to c1nc(N2CCOCC2)c2[nH]cnc2n1 -5.75

Moving on to CC[N+]1(C)CCC(O)(c2ccc(Cl)c(Cl)c2)C(C(=O)c2ccc(Cl)c(Cl)c2)C1 (configuration not stated) 98.8

Moving on to O=C(Nc1cc(Cl)ccc1Oc1cc(Cl)c(Cl)cc1S(=O)(=O)O)Nc1cc(Cl)ccc1Oc1cc(Cl)c(Cl)cc1S(=O)(=O)O 86

Moving on to Cc1c(F)c(C)c(C(=O)O)c(C)c1F 99.2

Moving on to COc1ccc(OC)c(/C=C/c2ccnc3ccccc23)c1 95

Moving on to Oc1c(N2CCOCC2)cc(-c2cc(N3CCOCC3)c(O)c3ccccc23)c2ccccc12 51.6

Moving on to NNc1ccccc1F 99.2

Moving on to C[n+]1c(/C=C/c2cccc([N+](=O)[O-])c2)sc2ccccc21 96

Moving on to COc1ccc(C(c2ccc(C(C)C)cc(OC)c2=O)c2ccc(C(C)C)cc(OC)c2=O)cc1 9

Moving on to O=C(O)C(O)Cc1ccc(O)cc1 (configuration not stated) -13.3

Moving on to Fc1cccc2c1cc1ccc3cccc4ccc2c1c34 87.5

====

test: NCI Yeast Anticancer Drug Screen. Data for the mlh1 rad18 strain (AID 175); settings: S. cerevisiae mlh1 rad18 strain growth inhibition; at 50.0 µM (retest, dose inferred, filed as 5.0)
About 79,000 compounds went through this panel and 15% of them were active in at least one assay; those are over-represented in the sample as a whole. The source made the active and inactive calls. Cut-off read from the data, not from the text of the source: active = growth inhibition above about 70%; inactive = the rest.
// one of TRUE (active), FALSE (inactive), no free text

Status in this test for COc1ccc2c(C#N)cc3c(c[n+](C)c4ccccc34)c2c1 ? TRUE

Moving on to CCn1c2ccccc2c2ccc(N=Nc3ccc(N(C)C)cc3)cc21 TRUE

Moving on to Nc1ccc2c(c1)[nH]c(=O)c1ccc(Cl)cc12 TRUE

Moving on to CNc1cc(SC)nc(N)n1 FALSE

Moving on to NSc1ccccn1 TRUE

Moving on to COc1ccc(CC2=CC(=O)C(=O)C=C2C)cc1 FALSE

Moving on to Nc1ccc2[nH]c3ccccc3c2c1 FALSE

Moving on to CSc1c(S(C)=O)c2ccccc2n1C (stereo not drawn) FALSE

Moving on to Cc1cc(Cl)ccc1C(=O)c1ccc2ccccc2c1C(=O)O FALSE

Moving on to O=C(CBr)C1(Br)CCN(Cc2ccccc2)CC1 TRUE

Moving on to O/N=C1/CC2CCCc3ccc4cccc1c4c32 (stereo not drawn) FALSE

Moving on to CN(C)CCC(=O)N1C/C(=C\c2ccc(Cl)c(Cl)c2)C(=O)/C(=C/c2ccc(Cl)c(Cl)c2)C1 TRUE

Moving on to O=C(O)C(O)Cc1ccc(O)cc1 (stereo not drawn) FALSE

====

assay: NCI Yeast Anticancer Drug Screen. Data for the bub3 strain (AID 167); conditions: S. cerevisiae bub3 mutant strain, at 50.0 µM (retest, dose inferred, filed as 5.0), active compounds read high
This is part of a sample that, as a whole, favours compounds with a hit. Of some 79,000 tested, about 15% had one in any assay.
Experimental readout: growth inhibition (%)
Your answer is read as %, so omit the unit and give the number.

State the recorded growth inhibition for this entry: CCCCCCCCCCCC(=O)OCC(C)C -18

Moving on to Cc1cc(Cl)ccc1Nc1sc(C(=O)c2cc3cc(Cl)ccc3o2)c(N)c1C#N 55

Moving on to CC(=O)Oc1cc2c(=O)oc3c(OC(C)=O)c(OC(C)=O)c(OC(C)=O)c4c(=O)oc(c1OC(C)=O)c2c34 71

Moving on to CN(C)c1cc[c]([Sn]([c]2ccc(N(C)C)cc2)([c]2ccc(N(C)C)cc2)[c]2ccc(N(C)C)cc2)cc1 -12

Moving on to NC(=O)C1C(=O)c2cccc3c2C1(Br)C(Br)CCC3 (configuration not stated) 99

Moving on to O=C(Nc1cccc(Cl)c1)c1ccc([N+](=O)[O-])cc1 32

Moving on to Nc1ccc2c(c1)[nH]c(=O)c1ccc(Cl)cc12 91

Moving on to c1ccc2c(c1)CCc1[nH]c3c(c1-2)-c1ccccc1CC3 94

Moving on to C=C1CC[C@@H](Br)C(C)(C)[C@]12CCC(C)(O)C(Cl)C2 (some centres not stated) 72

Moving on to NC(=O)NNC(=O)NNC(N)=O -8

Moving on to O=C1NC(=O)C(c2ccccc2)(c2ccccc2)C2CC3c4[nH]c5ccccc5c4CCN3CC12 (configuration not stated) 51

Moving on to CCOC(=O)C(CC)(CCc1ccccc1[N+](=O)[O-])C(=O)OCC 24

Moving on to O=S(=O)(Sc1ccccc1)c1ccccc1 99

Moving on to CCC1C(c2ccccc2O)c2cc3c(cc2OC1N1CCOCC1)OCO3 (configuration not stated) 99

Moving on to O=C(CC(O)(CC(=O)OCc1ccccc1)C(=O)OCc1ccccc1)OCc1ccccc1 -34

Moving on to N#CCc1nc(Cl)cc(Cl)n1 2

Moving on to S=C(N/N=C(/c1ccccc1)c1ccccn1)N1CCCCC1 97

Moving on to CCOC(=O)Nc1cc(NC(C)/C(=N/O)c2ccccc2)c([N+](=O)[O-])c(N)n1 (configuration not stated) 87

Moving on to ClC(Cl)(Cl)C1OCOC(C(Cl)(Cl)Cl)O1 (configuration not stated) 98

Moving on to CN(C)C[N+](C)(C)Cc1ccc(C[N+](C)(C)C[N+](C)(C)Cc2ccc(CCl)cc2)cc1 -1

Moving on to C[N+]1(C)C/C(=C\C=C\c2ccccc2)C(=O)/C(=C/C=C/c2ccccc2)C1 -2

Moving on to CCCCNC(=O)OCCN=C1c2ccccc2C(Br)C(Br)c2ccccc21 (configuration not stated) 28

====

Record form. Attribute: growth inhibition. Fill in for each entry.
assay: NCI Yeast Anticancer Drug Screen. Data for the cln2 rad14 strain (AID 165);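 also: 0% = growth equal to vehicle treated cultures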; settings: S. cerevisiae cln2 rad14 strain, at 50.0 µM, active compounds read high
This is part of a sample that, as a whole, favours compounds with a hit. Of some 79,000 tested, about 15% had one in any assay.
Your answer is read as %, so omit the unit and give the number.

State the recorded growth inhibition for this entry: COc1cc(CNC(=O)CCCCCCCC/C=C/Br)ccc1O 85

Moving on to O=C(Oc1ccc(/C=C/[n+]2ccccc2)c(OC(=O)c2ccccc2)c1)c1ccccc1 5.7

Moving on to O=C(CSc1nccc(=O)[nH]1)c1ccccc1 32.4

Moving on to CC(C)c1c(P(=O)(c2ccccc2)c2ccccc2)n(C)c2ccccc12 85.5

Moving on to O=C(O)/C=C/CCC1SCC2NC(=O)NC21 (stereo unspecified) 84

Moving on to O=C(O)/C(=C/c1ccccc1)c1ccccc1.[Ag] 78.8

Moving on to COC(=O)/C(=C/C=C(c1ccccc1)c1ccccc1)N(C(C)=O)C(C)=O 99.4

Moving on to O=C1/C(=C/c2ccccc2[N+](=O)[O-])COc2ccccc21 8.75

Moving on to COC(=O)C1CCC(=O)N1C(c1ccc(OC)cc1)c1cc(OC)c(OC)c(OC)c1 (stereo unspecified) -7.4

Moving on to CCc1c(-c2ccccc2)c(CN2CCCCC2)c2ccccn12 -20

Moving on to O=C(N=Nc1cccc(Cl)c1)NNc1cccc(Cl)c1 83.5
